tgt: recombinant human MAO-B (monoamine oxidase-B) (Homo sapiens, UniProt P27338)
Construct: purchased Sigma-Aldrich
Sequence (P27338 whole entry): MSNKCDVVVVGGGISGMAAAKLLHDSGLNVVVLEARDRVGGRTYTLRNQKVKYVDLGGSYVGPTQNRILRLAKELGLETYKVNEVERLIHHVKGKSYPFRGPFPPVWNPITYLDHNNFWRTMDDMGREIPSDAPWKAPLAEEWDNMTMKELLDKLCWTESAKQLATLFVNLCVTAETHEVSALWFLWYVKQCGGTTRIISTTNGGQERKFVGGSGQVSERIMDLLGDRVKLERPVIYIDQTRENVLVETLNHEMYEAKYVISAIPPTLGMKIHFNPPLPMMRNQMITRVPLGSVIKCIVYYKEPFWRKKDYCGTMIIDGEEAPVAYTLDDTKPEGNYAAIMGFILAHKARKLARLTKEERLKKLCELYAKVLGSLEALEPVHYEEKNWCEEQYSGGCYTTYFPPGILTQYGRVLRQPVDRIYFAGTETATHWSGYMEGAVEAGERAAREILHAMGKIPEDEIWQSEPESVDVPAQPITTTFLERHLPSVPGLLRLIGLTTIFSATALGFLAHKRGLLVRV
assay_comment: Activity evaluation on recombinant human MAO-B (Amplex Red/HRP-coupled assay, 1 mM benzylamine substrate)
Format: biochemical
cond: 1 mM benzylamine, read-out: Inhibitory Activity (IC50, nM) MAO-B
Where a name gives a salt, the structure may show the parent alone.
Exercise: state measured log10(IC50) for each of the compounds provided.
Lab note - IC50 converted to log10 from values in nM.

Task: Need log10(IC50), item NCC(Cn1ncn(-c2ccc(-c3ccc(C(F)(F)F)nc3)cc2F)c1=O)=C(F)F [Example 33, Trifluoroacetate]
Result: 2.28

Task: Could you share which log10(IC50) value was measured for NCC(Cn1ncn(Cc2ccc(-c3ccc4nonc4c3)s2)c1=O)=C(F)F [Example 129, Trifluoroacetate] ?
Result: 2.49

Task: Looking for the measured log10(IC50) of CCn1cc(-c2cc(-n3cnn(CC(CN)=C(F)F)c3=O)ccn2)cn1 [Example 67, Trifluoroacetate] , can you help?
Result: 3.92

Task: For CN1C(=O)CCc2cc(-c3ccc(Cn4cnn(CC(CN)=C(F)F)c4=O)s3)ccc21 [Example 138, Trifluoroacetate] , what is its reported log10(IC50)?
Result: 4.18

Task: Give its log10(IC50) value. Item: Cc1cc(-n2cnn(CC(CN)=C(F)F)c2=O)cnc1Br [Example 13, Trifluoroacetate]
Result: 3.56

Task: For the compound Cc1cc(-c2cccc(-n3cnn(CC(CN)=C(F)F)c3=O)n2)cc2c1NC(=O)CC2 [Example 51, Trifluoroacetate] , what log10(IC50) is on record?
Result: 4.45

Task: Consider the compound shown here: CN1CCOc2cc(-c3ccc(Cn4cnn(CC(CN)=C(F)F)c4=O)s3)ccc21 [Example 140, Trifluoroacetate] What is its recorded log10(IC50)?
Result: 3.90

Task: Reported log10(IC50) for Cc1cc(-n2cnn(CC(CN)=C(F)F)c2=O)cnc1-c1ccc2c(c1)CCC(=O)N2C [Example 81, Trifluoroacetate] : what is it?
Result: 3.54

Task: Using the record for NCC(Cn1ncn(Cc2ccc(-c3ccc(C(F)(F)F)nc3)s2)c1=O)=C(F)F [Example 111, Trifluoroacetate] , report its log10(IC50).
Result: 3.97

Task: Sample CS(=O)(=O)c1ccc(-c2ccc(Cn3cnn(CC(CN)=C(F)F)c3=O)s2)cc1 [Example 101, Trifluoroacetate] — what was its log10(IC50)?
Result: 4.83

Task: Which log10(IC50) reading was recorded for the compound NCC(Cn1ncn(Cc2cc(-c3ccc(C(F)(F)F)nc3)cs2)c1=O)=C(F)F [Example 148, Trifluoroacetate] ?
Result: 3.94

====

tgt: recombinant human DAO (diamine oxidase) (Homo sapiens, UniProt P19801)
Construct: purchased R&D systems
Sequence (P19801 20-751): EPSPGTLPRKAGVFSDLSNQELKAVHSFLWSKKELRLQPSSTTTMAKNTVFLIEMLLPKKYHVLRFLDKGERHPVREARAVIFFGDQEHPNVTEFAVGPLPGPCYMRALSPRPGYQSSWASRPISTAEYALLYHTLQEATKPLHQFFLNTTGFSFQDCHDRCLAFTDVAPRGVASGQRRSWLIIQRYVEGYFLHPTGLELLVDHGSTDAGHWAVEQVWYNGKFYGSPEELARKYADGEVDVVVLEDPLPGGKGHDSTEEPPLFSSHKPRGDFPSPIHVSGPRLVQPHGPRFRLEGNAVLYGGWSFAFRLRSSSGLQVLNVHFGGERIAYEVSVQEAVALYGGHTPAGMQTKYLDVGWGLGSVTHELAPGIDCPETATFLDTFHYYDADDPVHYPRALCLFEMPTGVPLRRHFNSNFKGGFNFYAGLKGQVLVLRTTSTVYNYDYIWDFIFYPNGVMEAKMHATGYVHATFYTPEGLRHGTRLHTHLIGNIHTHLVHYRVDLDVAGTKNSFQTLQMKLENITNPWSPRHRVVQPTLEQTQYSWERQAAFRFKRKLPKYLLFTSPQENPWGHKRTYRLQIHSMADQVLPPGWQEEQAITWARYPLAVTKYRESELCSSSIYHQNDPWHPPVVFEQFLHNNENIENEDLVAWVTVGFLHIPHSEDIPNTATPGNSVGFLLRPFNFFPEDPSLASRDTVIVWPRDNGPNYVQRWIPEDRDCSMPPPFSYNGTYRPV
assay_comment: Activity evaluation on recombinant human DAO (Amplex Red/HRP-coupled assay, 1 mM putrescine substrate)
Assay type: biochemical
cond: 1 mM putrescine, read-out: Inhibitory Activity (IC50, nM) DAO
Structures can show the parent of a compound that is named as a salt.
Field: IC50. Provide a value for each of the compounds that follow.
API: value field is a number in nM; no unit string.

Task: I'd like to know its IC50. The compound in question is Cc1cc(-c2ccc(S(C)(=O)=O)cc2)cnc1-n1cnn(CC(CN)=C(F)F)c1=O [Example 68, Trifluoroacetate]
Result: 2100

Task: Query: IC50; subject: NCC(Cn1ncn(-c2cccc(-c3ccc(N4CCNCC4)cc3)c2)c1=O)=C(F)F [Example 18, Ditrifluoroacetate]
Result: 13000

Task: # IC50 lookup, item CCOc1ncc(-c2ccc(Cn3cnn(CC(CN)=C(F)F)c3=O)s2)cn1 [Example 117, Trifluoroacetate]
Result: 7100

Task: Which IC50 is listed for NCC(Cn1ncn(-c2ccc(-c3ccc4c(c3)OCO4)c(F)c2)c1=O)=C(F)F [Example 28, Trifluoroacetate] ?
Result: 1600

Task: So what does the record say about IC50 for NCC(Cn1ncn(Cc2cc(Br)cs2)c1=O)=C(F)F [Example 98, Trifluoroacetate] ?
Result: 18600

====

tgt: recombinant human DAO (diamine oxidase) (Homo sapiens, UniProt P19801)
Construct: purchased R&D systems
Sequence (P19801 20-751): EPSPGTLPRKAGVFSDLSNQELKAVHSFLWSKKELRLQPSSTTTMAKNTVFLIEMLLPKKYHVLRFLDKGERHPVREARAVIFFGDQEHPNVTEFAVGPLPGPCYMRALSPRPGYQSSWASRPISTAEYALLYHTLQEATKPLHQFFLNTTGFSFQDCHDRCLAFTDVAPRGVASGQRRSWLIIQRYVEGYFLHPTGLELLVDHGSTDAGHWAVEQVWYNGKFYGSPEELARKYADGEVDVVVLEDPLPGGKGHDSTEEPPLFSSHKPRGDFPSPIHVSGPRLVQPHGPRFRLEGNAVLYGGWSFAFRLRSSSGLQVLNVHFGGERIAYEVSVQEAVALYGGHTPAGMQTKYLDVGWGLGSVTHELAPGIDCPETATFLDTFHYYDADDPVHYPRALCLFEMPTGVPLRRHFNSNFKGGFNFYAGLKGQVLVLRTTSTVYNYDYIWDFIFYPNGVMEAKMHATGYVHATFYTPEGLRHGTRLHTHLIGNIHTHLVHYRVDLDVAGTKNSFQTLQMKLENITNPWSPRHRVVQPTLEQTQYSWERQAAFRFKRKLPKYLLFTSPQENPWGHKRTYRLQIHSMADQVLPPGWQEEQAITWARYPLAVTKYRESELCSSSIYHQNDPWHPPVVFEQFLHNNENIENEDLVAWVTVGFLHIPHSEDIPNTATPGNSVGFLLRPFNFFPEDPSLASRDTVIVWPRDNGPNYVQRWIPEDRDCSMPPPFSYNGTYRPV
assay_comment: Activity evaluation on recombinant human DAO (Amplex Red/HRP-coupled assay, 1 mM putrescine substrate)
Format: biochemical
cond: 1 mM putrescine substrate, read-out: Inhibitory Activity (IC50, nM) DAO
Counter-ions that a name gives are not always drawn.
Label true (1) when IC50 is strictly below 1000 nM; at or above that, label false (0).

Task: Find out if reported IC50 for Cc1cc(-c2ccc3c(c2)NC(=O)CO3)cnc1-n1cnn(CC(CN)=C(F)F)c1=O [Example 221, Trifluoroacetate] is less than 1000 nM
Result: false (0)

Task: Hi there! Is IC50 for CN(C)c1ccc(-c2ccc(Cn3cnn(CC(CN)=C(F)F)c3=O)cc2)cn1 [Example 267, Trifluoroacetate] below 1000 nM, do you know?
Result: false (0)

Task: Please state whether IC50 is below 1000 nM for CN1C(=O)CCc2cc(-c3cc(F)c(Cn4cnn(CC(CN)=C(F)F)c4=O)s3)ccc21 [Example 301, trifluoroacetate]
Result: false (0)

Task: IC50 strictly < 1000 nM for this compound? Cc1cc(C#Cc2ccc3c(n2)OCCN3)cnc1-n1cnn(CC(CN)=C(F)F)c1=O [Example 246, ditrifluoroacetate]
Result: false (0)

Task: Does the reported IC50 of the following compound sit strictly below 1000 nM? Cc1cc(C#Cc2ccc3c(c2)CCC(=O)N3)cnc1-n1cnn(CC(CN)=C(F)F)c1=O [Example 249, Trifluoroacetate]
Result: false (0)

Task: A record lists Cc1cc(-c2ccc3cc(Cn4cnn(CC(CN)=C(F)F)c4=O)sc3c2)cc2c1NC(=O)CC2 [Example 202, Trifluoroacetate] . Is its IC50 below 1000 nM?
Result: false (0)

Task: Determine whether this compound shows IC50 lower than 1000 nM (ties excluded): CN(C)c1cc(-c2cccc(-n3cnn(CC(CN)=C(F)F)c3=O)n2)ccc1F [Example 217, Trifluoroacetate]
Result: false (0)

Task: A record lists CCn1cc(-c2cccc(-n3cnn(CC(CN)=C(F)F)c3=O)n2)ccc1=O [Example 218, Trifluoroacetate] . Is its IC50 below 1000 nM?
Result: true (1)

Task: Is 1000 nM strictly greater than the compound's reported IC50? compound: Cc1c(-c2cnn(C(F)F)c2)cccc1-n1cnn(CC(CN)=C(F)F)c1=O [Example 261, Trifluoroacetate]
Result: false (0)

Task: I'd appreciate it if you could check whether Cc1cc(-c2ccc3sc(Cn4cnn(CC(CN)=C(F)F)c4=O)cc3c2)cc2c1NC(=O)CC2 [Example 210, Trifluoroacetate] has IC50 smaller than 1000 nM.
Result: false (0)

Task: I'd appreciate it if you could check whether Cc1cc(-c2ccc(S(=O)(=O)N(C)C)cc2)cnc1-n1cnn(CC(CN)=C(F)F)c1=O [Example 238, trifluoroacetate] has IC50 smaller than 1000 nM.
Result: true (1)

Task: Threshold test, IC50 < 1000 nM: NCC(Cn1ncn(-c2cccc(-c3ccc(C(=O)N4CCOCC4)cc3)n2)c1=O)=C(F)F [Example 214, Trifluoroacetate]
Result: true (1)

Task: For Cc1c(-c2ccc3c(c2)OCO3)cccc1-n1cnn(CC(CN)=C(F)F)c1=O [Example 257, Trifluoroacetate] , is the recorded IC50 below the cut-off of 1000 nM?
Result: false (0)

Task: Bench note: check whether Cc1cc(C#Cc2cnc3c(c2)NCCO3)cnc1-n1cnn(CC(CN)=C(F)F)c1=O [Example 244, ditrifluoroacetate] shows IC50 below 1000 nM
Result: false (0)
